Assay: Urinary recovery in marmosets (IV dose)
Format: ADME, organism-based
Conditions: callithrix, urine, read-out: Recovery
Flag rule - dose excreted less than 20% flags criterion met; the remaining entries get criterion not met.

# example entries with known answers
structure string: CCn1cc(C(=O)NCC2=C(C(=O)O)N3C(=O)[C@@H](NC(=O)/C(=N\OC(C)(C)C(=O)O)c4csc(N)n4)[C@H]3SC2)c(=O)c2cc(O)c(O)cc21
qualitative label: criterion met
//
structure string: CCn1nc(C(=O)NCC2=C(C(=O)O)N3C(=O)[C@@H](NC(=O)/C(=N\OC(C)(C)C(=O)O)c4csc(N)n4)[C@H]3SC2)c(=O)c2cc(O)c(O)cc21
qualitative label: criterion not met
//
structure string: CC(C)(O/N=C(\C(=O)N[C@@H]1C(=O)N2C(C(=O)O)=C(CNC(=O)c3ccc(O)c(O)c3)CS[C@H]12)c1csc(N)n1)C(=O)O
qualitative label: criterion not met
//
structure string: CC(C)(O/N=C(\C(=O)N[C@@H]1C(=O)N2C(C(=O)O)=C(CNC(=O)c3cc4ccc(O)c(O)c4oc3=O)CS[C@H]12)c1csc(N)n1)C(=O)O
qualitative label: criterion met
//
structure string: CC(C)(O/N=C(\C(=O)N[C@@H]1C(=O)N2C(C(=O)O)=C(CNC(=O)c3cc(Cl)c(O)c(O)c3Cl)CS[C@H]12)c1csc(N)n1)C(=O)O
qualitative label: criterion met

Hi there! Is dose excreted for CC(C)(O/N=C(\C(=O)N[C@@H]1C(=O)N2C(C(=O)O)=C(CNC(=O)c3cc(O)c(O)c(C#N)c3)CS[C@H]12)c1csc(N)n1)C(=O)O below 20%, do you know?
criterion met

For CC(C)(O/N=C(\C(=O)N[C@@H]1C(=O)N2C(C(=O)O)=C(CNC(=O)c3cc(O)c(O)c(Br)c3)CS[C@H]12)c1csc(N)n1)C(=O)O , is the recorded dose excreted below the cut-off of 20%?
criterion met

Check if dose excreted falls below 20% for CO/N=C(\C(=O)N[C@@H]1C(=O)N2C(C(=O)O)=C(CSc3nc(=O)c(O)nn3C)CS[C@H]12)c1csc(N)n1 .
criterion not met

Field: below-cutoff. Rule: recorded dose excreted strictly less than 20%. Subject: CC(C)(O/N=C(\C(=O)N[C@@H]1C(=O)N2C(C(=O)O)=C(CNC(=O)c3cc(O)c(O)c([N+](=O)[O-])c3)CS[C@H]12)c1csc(N)n1)C(=O)O
criterion not met

====

Tested on: Enterobacter cloacae
Assay: microbe, parasite or virus in culture
Description: Compound was tested for antimicrobial activity against Enterobacter cloacae constitutive derepressed type I beta-lactamase producer (P99+) strain
Listing of recorded MIC by entry.
Could you give me the number in µg/mL? Just the number is fine.

Some solved entries appear below for comparison.
structure string: CC(C)(O/N=C(\C(=O)N[C@@H]1C(=O)N2C(C(=O)[O-])=C(C[n+]3ccccc3)CS[C@H]12)c1csc(N)n1)C(=O)O
result value: 32
--
structure string: CCO/N=C(\C(=O)N[C@@H]1C(=O)N2C(C(=O)O)=C(CNC(=O)c3ccc(O)c(O)c3)CS[C@H]12)c1csc(N)n1
result value: 64

Record CC(C)(O/N=C(\C(=O)N[C@@H]1C(=O)N2C(C(=O)O)=C(CNC(=O)c3cc(O)c(O)c(Br)c3)CS[C@H]12)c1csc(N)n1)C(=O)O : what is its MIC with Enterobacter cloacae?
2

====

Entries and their measured MIC follow.
System: Escherichia coli
Test: microbe, parasite or virus in culture
Description: Compound was tested for antimicrobial activity against Escherichia coli DC0 strain (parent organism)

Solved cases (2 shown):
structure string: CCO/N=C(\C(=O)N[C@@H]1C(=O)N2C(C(=O)O)=C(CNC(=O)c3ccc(O)c(O)c3)CS[C@H]12)c1csc(N)n1
result value: 0.06 µg/mL
--
structure string: CCN(CC1=C(C(=O)O)N2C(=O)[C@@H](NC(=O)/C(=N\OC(C)(C)C(=O)O)c3csc(N)n3)[C@H]2SC1)C(=O)c1cc(O)c(O)c(Br)c1
result value: 0.015 µg/mL

What does the record list as MIC for CCn1cc(C(=O)NCC2=C(C(=O)O)N3C(=O)[C@@H](NC(=O)/C(=N\OC(C)(C)C(=O)O)c4csc(N)n4)[C@H]3SC2)c(=O)c2cc(O)c(O)cc21 ?
< 0.008 µg/mL
